Biological target: T1, human C1s (human, UniProt P09871 16-688)
T1 construct: also called hC1s; serum-derived human C1s (CompTech)
T1 sequence: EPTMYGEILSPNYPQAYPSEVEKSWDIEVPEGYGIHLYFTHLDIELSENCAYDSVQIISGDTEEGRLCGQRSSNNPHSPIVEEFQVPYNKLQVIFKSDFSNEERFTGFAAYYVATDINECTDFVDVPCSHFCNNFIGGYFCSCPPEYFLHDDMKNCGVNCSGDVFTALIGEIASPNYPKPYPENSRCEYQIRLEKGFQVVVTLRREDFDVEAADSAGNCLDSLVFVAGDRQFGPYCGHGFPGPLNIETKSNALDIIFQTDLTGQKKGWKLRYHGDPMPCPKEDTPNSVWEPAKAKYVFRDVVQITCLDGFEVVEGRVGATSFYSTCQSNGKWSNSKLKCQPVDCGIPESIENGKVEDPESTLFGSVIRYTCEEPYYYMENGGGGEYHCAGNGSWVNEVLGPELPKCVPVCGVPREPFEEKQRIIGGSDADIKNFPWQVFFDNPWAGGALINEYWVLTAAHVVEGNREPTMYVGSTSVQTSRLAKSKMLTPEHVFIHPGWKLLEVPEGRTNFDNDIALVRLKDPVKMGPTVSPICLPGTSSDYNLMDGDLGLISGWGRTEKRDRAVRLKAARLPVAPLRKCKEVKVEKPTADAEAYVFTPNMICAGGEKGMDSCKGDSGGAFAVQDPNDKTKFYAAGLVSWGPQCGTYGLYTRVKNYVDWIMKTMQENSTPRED
Test: SPR, Ab captured; pH 7.4, 1.2 mM Ca
reported.metric: pKd
Please express pKd as -log10 of the molar concentration.

Use the examples below as a reference point.
binder: C1_IPN92H0232-SG4GK/IPN93L0024-SK1 (antibody, human IgG4 S228P, kappa, name in Kabat numbering, V domains shown, also called IPN92H0232/IPN93L0024) VH: EVMLVESGGGLVKPGGSLRLSCAASGFTFSNYAMSWVRQAPGKGLEWVATISSGGSHTYYLDSVKGRFTISRDNSKDTLYLQMNSLRAEDTALYYCARLFTRHAMDYWGQGTLVTVSS VL: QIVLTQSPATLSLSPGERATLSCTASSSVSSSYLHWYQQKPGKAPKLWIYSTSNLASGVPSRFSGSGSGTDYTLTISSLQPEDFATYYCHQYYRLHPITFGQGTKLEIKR
pKd: 8.82
--
binder: C1_IPN92H0033-SG4GK/IPN93L0072-SK1 (antibody, human IgG4 S228P, kappa, name in Kabat numbering, V domains shown, also called IPN92H0033/IPN93L0072) VH: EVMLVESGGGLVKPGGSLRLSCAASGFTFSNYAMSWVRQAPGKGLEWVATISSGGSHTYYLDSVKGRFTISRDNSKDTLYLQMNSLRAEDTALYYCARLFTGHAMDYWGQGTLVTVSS VL: QIVLTQSPATLSLSPGERATLSCTASSSVKSSYLHWYQQKPGKAPKLWIYSTSNLASGVPSRFSGSGSGTDYTLTISSLQPEDFATYYCHQYYRLHPITFGQGTKLEIKR
pKd: 8.86
--
binder: C1_IPN92H0079-SG4GK/IPN93L0024-SK1 (antibody, human IgG4 S228P, kappa, name in Kabat numbering, V domains shown, also called IPN92H0079/IPN93L0024) VH: EVMLVESGGGLVKPGGSLRLSCAASGFTFSNKAMSWVRQAPGKGLEWVATISSGGSHTYYLDSVKGRFTISRDNSKDTLYLQMNSLRAEDTALYYCARLFTGHAMDYWGQGTLVTVSS VL: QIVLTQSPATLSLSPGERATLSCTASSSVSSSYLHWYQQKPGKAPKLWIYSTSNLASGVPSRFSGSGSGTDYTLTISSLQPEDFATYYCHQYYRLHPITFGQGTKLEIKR
pKd: 8.47
--
binder: C1_IPN92H0091-SG4GK/IPN93L0024-SK1 (antibody, human IgG4 S228P, kappa, name in Kabat numbering, V domains shown, also called IPN92H0091/IPN93L0024) VH: EVMLVESGGGLVKPGGSLRLSCAASGFTFSNYAKSWVRQAPGKGLEWVATISSGGSHTYYLDSVKGRFTISRDNSKDTLYLQMNSLRAEDTALYYCARLFTGHAMDYWGQGTLVTVSS VL: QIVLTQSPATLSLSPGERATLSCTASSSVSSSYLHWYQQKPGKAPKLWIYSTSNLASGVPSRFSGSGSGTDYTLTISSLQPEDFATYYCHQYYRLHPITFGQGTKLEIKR
pKd: 8.57

Task: // pKd lookup, key: C1_IPN92H0156-SG4GK/IPN93L0024-SK1 (antibody, human IgG4 S228P, kappa, name in Kabat numbering, V domains shown, also called IPN92H0156/IPN93L0024) VH: EVMLVESGGGLVKPGGSLRLSCAASGFTFSNYAMSWVRQAPGKGLEWVATISSGGSHTKYLDSVKGRFTISRDNSKDTLYLQMNSLRAEDTALYYCARLFTGHAMDYWGQGTLVTVSS VL: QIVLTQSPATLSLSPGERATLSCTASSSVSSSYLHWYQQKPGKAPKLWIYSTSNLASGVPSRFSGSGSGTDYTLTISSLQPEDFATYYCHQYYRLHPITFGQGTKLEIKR
Result: 8.67
